Values compiled from patent US20230134571A1.

target: HIV Env of isolate SC422661.8 (clade B) (HIV); test: cell-based or functional assay
Property: IC50 (µg/ml) with constrains (µg/mL)

Binder	Uom	Meas value
ePGDM13 (antibody, V domains shown) VH: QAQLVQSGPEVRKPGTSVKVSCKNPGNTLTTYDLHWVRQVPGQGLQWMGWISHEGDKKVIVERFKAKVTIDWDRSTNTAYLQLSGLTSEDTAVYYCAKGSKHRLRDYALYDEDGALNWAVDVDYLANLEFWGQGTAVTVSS VL: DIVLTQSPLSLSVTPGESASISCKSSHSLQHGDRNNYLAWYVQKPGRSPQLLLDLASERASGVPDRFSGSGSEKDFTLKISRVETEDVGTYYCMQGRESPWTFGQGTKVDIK	µg/mL	1.56
